- target system: Runt-related transcription factor 1 (Homo sapiens) + Core-binding factor subunit beta (Homo sapiens) (UniProt Q01196+Q13951)
- Sequence (Q01196 whole entry, looked up): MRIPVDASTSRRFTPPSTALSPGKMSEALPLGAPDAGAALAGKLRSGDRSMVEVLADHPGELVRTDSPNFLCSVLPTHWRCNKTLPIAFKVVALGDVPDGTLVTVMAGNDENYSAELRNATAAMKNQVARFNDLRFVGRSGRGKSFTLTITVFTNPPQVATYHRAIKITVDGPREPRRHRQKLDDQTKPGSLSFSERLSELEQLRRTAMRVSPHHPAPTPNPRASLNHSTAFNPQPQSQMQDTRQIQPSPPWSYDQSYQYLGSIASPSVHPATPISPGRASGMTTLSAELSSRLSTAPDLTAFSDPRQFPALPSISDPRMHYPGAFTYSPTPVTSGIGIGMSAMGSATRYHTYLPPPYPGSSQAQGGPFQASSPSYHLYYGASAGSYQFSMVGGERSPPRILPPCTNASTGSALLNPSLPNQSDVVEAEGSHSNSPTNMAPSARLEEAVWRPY
- Sequence (Q13951 whole entry, looked up): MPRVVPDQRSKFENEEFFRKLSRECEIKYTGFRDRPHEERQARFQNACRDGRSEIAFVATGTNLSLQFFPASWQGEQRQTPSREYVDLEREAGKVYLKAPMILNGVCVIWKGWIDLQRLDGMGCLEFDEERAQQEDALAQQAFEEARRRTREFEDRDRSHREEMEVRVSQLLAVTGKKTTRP
- assay remarks: inhibitors of RUNX1 Runt–CBFb binding, primary screen, biochemical, FRET, Cerulean-Runt, Venus-CBFb, uHTS (AID 1496);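 further: 0% = DMSO wells and 100% = excess unlabeled CBFb competitor control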
- protocol conditions: Cerulean-Runt/Venus-CBFb FRET ratio 530/480, 1 h; at 20 µM; stronger effect = higher value
The campaign covered roughly 220,000 compounds. About 990 (0.45%) were called active. The full list was thinned out, with actives kept by preference.
# inhibition values compiled below
test readout: inhibition (%)

1) CCC1=C(C(=O)OC)C(c2cc(OC)ccc2OC)C(C#N)=C(N)O1 (stereo not given) ... 2
2) Cc1ccsc1/C=N/NC(=O)Cc1cc(=O)[nH][nH]1 ... -1.1
3) COc1cccc(Nc2nc(N)c([N+](=O)[O-])c(NCc3ccco3)n2)c1 ... 0.2
4) CCOc1ccc2sc(NS(=O)(=O)c3ccc(N)cc3)nc2c1 ... 0.7
5) CCc1c(C)nc2c(-c3ccccc3)c(C)nn2c1Nc1ccc(NC(C)=O)cc1 ... -2.4
6) CCCN(c1ccc(C)cc1)c1nc(=O)c2cccnc2s1 ... 0.8
7) COc1ccc(C2C(C#N)=C(N)Oc3cc(N)ccc32)cc1OC (stereo not given) ... 77.7
8) Cc1cc2nc3c(=O)n(Cc4ccccc4)c(=O)[nH]c3nc2cc1N ... -281
9) CC(=O)NNC(=O)c1csc(Cc2c(Cl)sc3ccc(Cl)cc23)n1 ... 1.6
10) Cn1c(CC2Sc3ccccc3NC2=O)nnc1SCC(=O)c1ccc(Cl)cc1 (stereo not given) ... 1.9
11) O=C(O)c1ccccc1C(=O)Nc1ccccc1[N+](=O)[O-] ... -1.2
12) CN(C)S(=O)(=O)c1ccc(Cl)c(NC(=O)COC(=O)CC(NC(N)=O)c2ccc(Cl)cc2)c1 (stereo not given) ... -1.9
13) COc1cccc2sc(NNC(=O)c3nc4ccccc4s3)nc12 ... 32.7
14) CCc1nc2sc3c(Cl)ncnc3c2c2c1CCCC2 ... -0.7
15) O=C(/C=C/c1ccc2c(c1)OCCO2)c1ccc(O)cc1 ... -2.3
